target: mPD1-HIS (mouse Programmed cell Death protein 1) (mouse, UniProt Q02242 25-169); assay: SPR; aptamer immobilized; 20 mM Tris-HCl pH 7.4, 140 mM NaCl, 5 mM MgCl2, 1 mM CaCl2, 1 mM KCl; FLAA/MST with 0.1% BSA and 0.05% Tween 20 (FLAA at RT); SPR without BSA, 0.005% Tween 20; conditions: protein: commercial; tags: C-terminal HIS; label: 5'-BiotinTEG
Sequence (Q02242 25-169): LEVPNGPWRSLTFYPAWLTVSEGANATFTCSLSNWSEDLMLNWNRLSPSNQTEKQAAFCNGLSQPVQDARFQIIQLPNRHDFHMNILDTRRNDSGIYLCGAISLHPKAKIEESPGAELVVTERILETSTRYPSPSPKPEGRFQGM
Measured attribute: pKd
Scale note: pKd = -log10(concentration in M).

Fill in: pKd of CGTCATAGGTACCATGGGGGACTGCTCGGGATTGCGGATTCATG (ssDNA) [NDM1-H14-01-FR] is ___ 9.90
